Tested on: MS2 coat protein
experiment: apparent KD of MS2 coat protein; designed switch direction (-1 OFF switch, 1 ON switch): 1; higher = weaker reporter binding
measurementSetup: input ligand: FMN 200 uM
Kindly return True if reported apparent KD of MS2 coat protein is no lower than 100 nM; return False if it is lower.

The following sequences have reported results that may help.
sequenceinput="CACAUGAGGAUCACCCAUGUGAGGCGGCAAUAAAACCGCGCACAGGAUAUAGCGCUAAGAAUGCGCUAGAAGGGUGAUUAGAAC [Esenla] (Eterna round: R96, puzzle: Same State NG 3)" group=True
sequenceinput="UUUACUUUCAUAGGAUAUCAUGCGAAAAUUGCGUGAGAAGGGUGCACACUGUCUUUCUAGGAGUACAUGAGGAUCACCCAUGUG [SameState NG1 #66] (Eterna round: R96, puzzle: Same State NG 1)" group=False
sequenceinput="GUUACAUGAGGAUCACCCAUGUAUGUGUGGGAGUAAGUGUCUUAGGAUAUCUAUGGUUUAAUUUAAGAGAAGGAAGAUUGUUGU [JMF's solution 72] (Eterna round: R96, puzzle: Same State NG 3)" group=True
sequenceinput="AGCGUCCACACAGGAUAUCACCUGCACUGCAGGUGAGAAGGGUGACCGGUGCGCAAUAACGACAUGAGGAUCACCCAUGUAAAA [Vegea] (Eterna round: R96, puzzle: Same State NG 1)" group=True
sequenceinput="ACAUGAGAUGGAGGAUAUGUUGUACCUACAUGUGACAUGAGGAUCACCCAUGUGGUAAGUAUGAUACAGAAGGCCAAGAUAUGU [Equivalance 59 - Jieux - Same State NG 2] (Eterna round: R96, puzzle: Same State NG 2)" group=False

Moving on to another sequence below.
[Q] In plain terms: is recorded apparent KD of MS2 coat protein at least 100 nM for UUUAUAGGCGCAGGAUAUGGUGAGGAUCACCCACUAGAAGGGUGCACAUGAGAAUCGGACAUGAGGAUCACCCAUGUCCGGCGC (Eterna round: R96, puzzle: Same State NG 1) ?
[A] True

----------
Test system: MS2 coat protein
experiment: apparent KD of MS2 coat protein; higher = weaker reporter binding
measurementSetup: Eterna round: R107; input ligand: theophylline 20 uM
Kindly return 1 (yes) if reported apparent KD of MS2 coat protein is no lower than 30 nM; return 0 (no) if it is lower.

sequenceinput=UUCAGCUAGUCGGCCGCCACUACAUGAGGAUCACCCAUGUAGGUCCACACUGCUUCGGCAGUGAGUAGGACCGGGACUAGCUGAG group="0 (no)"
sequenceinput=GGGUACAUCGCGGCCGCCACUCAUGUAAAUGCAUGAGGAUCACCCAUGUCGAUGGAGACAUCGGAGAGGACCGGGUGAUGUACCG group="1 (yes)"
sequenceinput="GGUGGACUUUCGGCCGCCACUGAGAGAGUCGUGUGAACAUGAGGAUCACCCAUGUAAUAUAUAUACAGGACCGGGAGGGUUGUCC [4.O]" group="0 (no)"
sequenceinput="UUUGAGAUAACAGAUACCAGCGUGUUAUAAAACAUGAGGAUCACCCAUGUAGUGAUCAAGCGCCCUUGGCAGCUGGUGUUUUAGG [7.H]" group="1 (yes)"

Moving on to another sequence below.
[Q] In plain terms: is recorded apparent KD of MS2 coat protein at least 30 nM for ACGCUGAUUGAUUACAAUCAGCGAAAAGAUACCAGUGGGUAAUCCCACCCUUGGCAGCUUAAACUUGAGGAUCACCCAGGUGGUA [TheoAS 17 #MS2Right #BothOrNeither #AlternativeMS2] ?
[A] 1 (yes)

----------
System: K4 kissing-loop RNA reporter;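 also: bound reporter read as fluorescence of individual clusters on recovered sequencing chips by microscopy, with normalized cluster intensities fitted with a binding model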
experiment: apparent KD of K4 kissing-loop reporter; higher = weaker reporter binding
measurementSetup: Eterna round: R107; input ligand: theophylline 20 uM
Kindly return label 1 if reported apparent KD of K4 kissing-loop reporter is no lower than 200 nM; return label 0 if it is lower.

sequenceinput="UUAGAGAUCUCAGGAUAUGAGUGAUGUUGAUAUCAAGAUCUGAGAUAGAAUUCUAUCUCAGAUCAAUCAGAAGGGAGAUCUCAUU [AK1.3 Exc FMN B]" group="label 1"
sequenceinput="ACGUCCGGAUUGAUCGUGGGCAUGGUCGAUACCAGUAGUUUAAUCUACCCUUGGCAGCGACAUGAGUGAUGUUCAUGUGCGGUGA [#14 K4 Theophylline A Exclusion]" group="label 1"
sequenceinput="UGUCAUUGGUCGGCCGCCACUUUAUAUGGAGUGAUGUUUUGUAAAUUGUGUUGAAAGGUGUGGUAAAGGACCGGGACCGAUGACU [FiskerMod 26 - Jieux - Same State - Tryptophan B]" group="label 1"
sequenceinput="AGAGAUAUAUGAGGAUAUGAGUUAGUUAAUGAGUUAGUUUUAGUGUUGUUUGGUUAGUGAUGUUAUUUAGAAGGCGUGAGUGAUG [cxfsmullin]" group="label 0"
sequenceinput="UGUCAUUGGUCUGAUACCAGUACCCUUGGCAGCCGAGGAGUGAUGUUCCAAGGAUACCAGUACCCUUGGCAGCAGACCGAUGACU [TheoBS 30 #DoubleAptamer #SwitchBubble]" group="label 0"

[Q] In plain terms: is recorded apparent KD of K4 kissing-loop reporter at least 200 nM for CCGGCCCGGCCGGAUACCAGUGCGCCGCUGGGAACCGCGGGCCCAGAGUGAUGUUCGGGACACCCUUGGCAGCCGCCUGGGUCGC [#2 Same State - Theophylline B Attempt #24 (HarryS)] ?
[A] label 1

[Q] In plain terms: is recorded apparent KD of K4 kissing-loop reporter at least 200 nM for CUGACUAAAUAGUCAGUGAUGUUGACUGGACGAGGACCGGUACGGCCGCCACUCGAGAGUGGUGUAAUAUAUGUCAUAUAGUCAA [Tryp A SS t3] ?
[A] label 1

[Q] In plain terms: is recorded apparent KD of K4 kissing-loop reporter at least 200 nM for AAUAAUAUACAAAGGCGAACGAAUAGGGAAGGAGCGCGAUAUAACGCAGGUAGGUCGCCCAUAUUUUUAGUGAUGUUAGAGAAUA [E. Arginine A Tesla 1] ?
[A] label 1

[Q] In plain terms: is recorded apparent KD of K4 kissing-loop reporter at least 200 nM for GGGAAGGACGGAGGAUAUGCACUGAGGAGGAGAAUAUAGUGAUGUUAUAUAAGAGGAAGGAGCUGAGUAGAAGGCCGAGGAAAGG [whbob_SS_FMNB__2th207] ?
[A] label 0

[Q] In plain terms: is recorded apparent KD of K4 kissing-loop reporter at least 200 nM for `GCCGUACGCAUGGAUACCAGCCGACAUGAUAUUUAGCUGGUGUCGUAGUGAUGUUACGAAGGCCCUUGGCAGCCAUGCGUACGGC` ?
[A] label 0

----------
System: MS2 coat protein
experiment: apparent KD of MS2 coat protein; designed switch direction (-1 OFF switch, 1 ON switch): -1; higher = weaker reporter binding
measurementSetup: Eterna round: R95; input ligand: microRNA oligo, concentration not stated
experimentalEndpoint: apparent KD of MS2 coat protein (nM)
Numbers only, in nM.

Solved cases below.
sequenceinput="AGUCCACAUGAGGAUCACCCAUGUCAGGAUAUCUGCUGGAAGAGGGCAGAAAGCCAGGAGAGAAGGGACCUGGG [Usarila] (puzzle: Exclusion 1)" testedon="MS2 coat protein" numericresult=34
sequenceinput="GUUGCGUUUGUGAGGAUAUGCUGGUCCUUGGUUCGGCAGAAGGCACAUGAGGAUCACCCAUGUGGUGUCGUUCC [salish99_Bmod_ex4_051] (puzzle: Brourd's mod of Exclusion 4)" testedon="MS2 coat protein" numericresult=13.3
sequenceinput="GCAGGCGUCUUGGCUCGUCUUAUUUGGAGAGGAUUGAUAACAUGAGGAUCACCCAUGUGUGUGGGAGAGUUGCAGUG [JR_SV3TOV2_Sub017] (puzzle: Sensor v3, turn-off variant 2)" testedon="MS2 coat protein" numericresult=203
sequenceinput="GGGUUACAUGAGGAUCACCCAUGUGAGGAUAUGAUACUAUGUACUUCGGUACAUAGUAUCAGAAGGCACAUAAA [Ex1-3: 19] (puzzle: Exclusion 1)" testedon="MS2 coat protein" numericresult=121

Dear colleague, could you send me apparent KD of MS2 coat protein for each of the items below? Thanks.
1. GGAUCGUAUGUGAGGAUAUACCACUGGAUACAGUGGUAGAAGGCACAUGAGGAUCACCCAUGUCCUAUCGAUCC [Fiskers BMX 4 - 54] (puzzle: Brourd's mod of Exclusion 4)
2. AAUAACAGAGGAUAUACUGUUUUAUGUGUUUAUUGUUUUAAACAUGAGGAUCACCCAUGUAGAAGGCUGAGUAA [JMF 32] (puzzle: Exclusion 2)

[A]
1: 132; 2: 33.5

----------
Tested on: MS2 coat protein
experiment: apparent KD of MS2 coat protein; higher = weaker reporter binding
measurementSetup: Eterna round: R107; input ligand: tryptophan 2.4 mM
experimentalEndpoint: apparent KD of MS2 coat protein (nM)
Answers are plain numbers, in nM.

Solved cases below.
sequenceinput="GCCUGGGAUACGGCCGCCACUACAUGAGGAUCACCCAUGUAAUAUUUAUUAGAAGAGAGGGUAUGUAGGACCGGGUAAGGAAGGC [e-trypB-0]" testedon="MS2 coat protein" unittag=nM numericresult=26
sequenceinput="CGUGUGCGUUCUGAUACCAGAGACAUGAGGAUCACCCAUGUCCGAUCGUCCUGCCUCAGACUCCCUUGGCAGCAGGUUUUGUGCU [Exclusion Theophylline B GF4]" testedon="MS2 coat protein" unittag=nM numericresult=50.2
sequenceinput="UCCAGACAUGAGGAUCACCCAUGUUGUGAUACCAGAACCGUGGAGUUCCCUUGGCAGCACUAAGAAGUUCCUGGAUCAGCUAGCG [theeternabot_sameState_MS2_Theo_A_9]" testedon="MS2 coat protein" unittag=nM numericresult=30

Dear colleague, could you send me apparent KD of MS2 coat protein for each of the items below? Thanks.
1. CCGGCCGCAUGAAGGAGCGCACAGCGCUCGCACAUGAGGAUCACCCAUGUAAAUGGGUGCGUGCAGGUAGGUCGCAUGCAGGCAA [Lesobete]
2. AACAUGAGGAUCACCCAUGUCUGAACUGAAGGAGCGCUAAACAAGGCAGGUAGGUCGCGGAAUUUUGUGUGCAUAUGCAUAUGGG [9.J]
3. UUGUUGUUUGGAAGGAGCGUGUAUGAUUAAGAACAUGAGGAUCACCCAUGUUGUAGGGUAGCACAGGUAGGUCGCCGGGUGGUGG [11.V]

[A]
1: 472; 2: 24.7; 3: 21.1

[Q] Find the recorded apparent KD of MS2 coat protein belonging to ACAUGAGGAUCACCCAUGUUUGAUGUUCCUCGAGGACCGGUACGGCCGCCACUCGAACGAGUGGCACGCGAGUGCGCACUCGCGU [aTa] and report it.
[A] 13.6
